# assayedSystem: P. falciparum apicoplast DNA polymerase (Pf-apPOL) (Plasmodium falciparum)
# experimentalDetails: Fluorescence-based high-throughput DNA polymerase assay (molecular beacon), primary screen and dose-response
# Type: biochemical
# conditionLabel: DRC-1; read at 90'; concentration 2.5
Can you tell me % inhibition Apol 90' 2.5 for the items I'm about to list?
The figure you give is taken to be in %; do not add the unit.

Query: Param item = `Cn1nc(-c2nnc(-c3ccccc3F)o2)c2c1CCN(C(=O)c1ccccc1Cl)C2` ; retrieve measured % inhibition Apol 90' 2.5.
Response: 23

Query: Param item = `COc1ccccc1CC(=O)N1CCc2c(nc3cc(-c4ccccc4Cl)[nH]n3c2=O)C1` ; retrieve measured % inhibition Apol 90' 2.5.
Response: -3.41

Query: Param item = C#CC(C=CC)OC(=O)c1ccccc1C(=O)O (centres unmarked) ; retrieve measured % inhibition Apol 90' 2.5.
Response: 1.5571

Query: Param item = `COc1ccc(/C=C/c2cc(C(=O)O)c3ccccc3n2)cc1` ; retrieve measured % inhibition Apol 90' 2.5.
Response: 35.7188

Query: Param item = `N#Cc1c(O)nc(N2CCCCC2)nc1-c1ccc2c(c1)OCO2` ; retrieve measured % inhibition Apol 90' 2.5.
Response: 5.9065

---

# assayedSystem: UniProt Q8ILY1
# experimentalDetails: Fluorescence-based high-throughput DNA polymerase assay (molecular beacon), primary screen and dose-response
# Format: biochemical
# conditionLabel: DRC-2; 40'; concentration 5
Quick rule: % inhibition Apol 40' of at least 20% means True, below that means False.

Query: Given the entry `COc1cccc(C(=O)N2CCc3c(nc4cc(-c5ccccc5)[nH]n4c3=O)C2)c1OC` , answer whether its % inhibition Apol 40' meets or surpasses 20%.
Response: True

Query: Given the entry COc1ccc2c(c1)C(c1ccccc1OC)CC(=O)O2 (centres unmarked) , answer whether its % inhibition Apol 40' meets or surpasses 20%.
Response: False

Query: Given the entry `O=C(NNC(=O)c1ccc(Cl)cc1)C(=O)NNC(=O)c1ccc(Cl)cc1` , answer whether its % inhibition Apol 40' meets or surpasses 20%.
Response: False

Query: Given the entry O=C1N=C(Nc2cccc(Cl)c2Cl)S/C1=C\c1ccco1 [Molecule 3, O=C1N=C(S/C/1=C\c1ccco1)Nc1cccc(c1Cl)Cl] , answer whether its % inhibition Apol 40' meets or surpasses 20%.
Response: True

Query: Given the entry COc1ccc(NC(=O)Cn2ccc3c(=O)[nH]ccc32)cc1 [Molecule 13, COc1ccc(cc1)NC(=O)Cn1ccc2c1cc[nH]c2=O] , answer whether its % inhibition Apol 40' meets or surpasses 20%.
Response: False

Query: Given the entry O=C(Cn1ccc2c(=O)[nH]ccc21)Nc1cc(F)ccc1F [Molecule 42, O=C(Cn1ccc2c1cc[nH]c2=O)Nc1cc(F)ccc1F] , answer whether its % inhibition Apol 40' meets or surpasses 20%.
Response: False

Query: Given the entry `COc1ccc(-c2c(C(F)(F)F)nn3c(=O)cc(-c4cccc([N+](=O)[O-])c4)[nH]c23)cc1` , answer whether its % inhibition Apol 40' meets or surpasses 20%.
Response: False

Query: Given the entry `COc1ccc(C(=O)N2CCc3c(nc4cc(-c5ccccc5Cl)[nH]n4c3=O)C2)cn1` , answer whether its % inhibition Apol 40' meets or surpasses 20%.
Response: False

Query: Given the entry `Cc1ccc(NC(=O)C2CCN(C(=O)c3cc4ccsc4[nH]3)CC2)c(Br)c1` , answer whether its % inhibition Apol 40' meets or surpasses 20%.
Response: True

Query: Given the entry `O=C1N/C(=N/c2ccccc2Cl)S/C1=C/c1ccc([N+](=O)[O-])o1` , answer whether its % inhibition Apol 40' meets or surpasses 20%.
Response: True

Query: Given the entry `COc1cccc(Oc2c(C(F)(F)F)oc3cc(OC(=O)N(C)C)ccc3c2=O)c1` , answer whether its % inhibition Apol 40' meets or surpasses 20%.
Response: False

---

# assayedSystem: P. falciparum apicoplast DNA polymerase (Pf-apPOL) (Plasmodium falciparum)
# experimentalDetails: Fluorescence-based high-throughput DNA polymerase assay (molecular beacon), primary screen and dose-response
# Type: biochemical
# conditionLabel: 'DNA Pol' (screen value);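 compound concentration given in µM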; 90 min, 10 µM
# From the text: The HT assay employs a molecular beacon, a stem-loop DNA template with a Cy3 dye and the Black Hole Quencher on the 3′ and 5′ ends of the DNA, respectively. Pf-apPOL concentration is based on a calculated absorptivity of ε280 = 56750 M^−1 cm^−1. […] To identify apPOL inhibitors we utilised our previously developed high-throughput DNA polymerase assay. […] The assay accurately recapitulates the kinetic behaviour of apPOL, as measured through more conventional low-throughput gel-based assays. […]
Quick rule: DNA Pol of at least 60 means 1, below that means 0.

Query: Given the entry `Cc1cccc(-c2noc(C(=O)NNC(=O)C(Cl)(Cl)Cl)n2)c1` , answer whether its DNA Pol meets or surpasses 60.
Response: 1

Query: Given the entry `N#Cc1c(O)nc(N2CCCCC2)nc1-c1ccc2c(c1)OCO2` , answer whether its DNA Pol meets or surpasses 60.
Response: 0

Query: Given the entry `O=C(CCc1csc(NC(=O)Nc2ccccc2)n1)Nc1nc2ccccc2s1` , answer whether its DNA Pol meets or surpasses 60.
Response: 0

Query: Given the entry `CC(=O)Nc1cc(C(=O)c2cccs2)nn(-c2ccc(Cl)cc2)c1=O` , answer whether its DNA Pol meets or surpasses 60.
Response: 1

Query: Given the entry Cc1ccc(N2CCC(NC(=O)Cc3cccs3)C2=O)cc1C (stereo not shown) , answer whether its DNA Pol meets or surpasses 60.
Response: 0

Query: Given the entry `Nc1cc(Oc2ccc(O)c(N)c2)ccc1O` , answer whether its DNA Pol meets or surpasses 60.
Response: 1

---

# assayedSystem: P. falciparum apicoplast DNA polymerase (Pf-apPOL) (Plasmodium falciparum)
# experimentalDetails: Fluorescence-based high-throughput DNA polymerase assay (molecular beacon), primary screen and dose-response
# Assay type: biochemical
# conditionLabel: DRC-2; 180'; conc 10
# Source text: The HT assay employs a molecular beacon, a stem-loop DNA template with a Cy3 dye and the Black Hole Quencher on the 3′ and 5′ ends of the DNA, respectively. Pf-apPOL concentration is based on a calculated absorptivity of ε280 = 56750 M^−1 cm^−1. […] To identify apPOL inhibitors we utilised our previously developed high-throughput DNA polymerase assay. […] The assay accurately recapitulates the kinetic behaviour of apPOL, as measured through more conventional low-throughput gel-based assays. […]
measuredAttribute: % inhibition apPOL 180' (%)
The figure you give is taken to be in %; do not add the unit.

Query: Param item = `Cc1cccc(C2=N/C(=C\c3ccc([N+](=O)[O-])o3)C(=O)O2)c1` ; retrieve measured % inhibition apPOL 180'.
Response: 20

Query: Param item = `Cc1ccc(N2NC(=O)/C(=C\c3ccc(O)c([N+](=O)[O-])c3)C2=O)cc1Cl` ; retrieve measured % inhibition apPOL 180'.
Response: 20

Query: Param item = Cc1cccc(NC(=O)Cn2ccc3c(=O)[nH]ccc32)c1C [Molecule 11, O=C(Cn1ccc2c1cc[nH]c2=O)Nc1cccc(c1C)C] ; retrieve measured % inhibition apPOL 180'.
Response: 50

---

# assayedSystem: P. falciparum apicoplast DNA polymerase (Pf-apPOL) (Plasmodium falciparum, UniProt Q8ILY1)
# Sequence (Q8ILY1 entry or part of it): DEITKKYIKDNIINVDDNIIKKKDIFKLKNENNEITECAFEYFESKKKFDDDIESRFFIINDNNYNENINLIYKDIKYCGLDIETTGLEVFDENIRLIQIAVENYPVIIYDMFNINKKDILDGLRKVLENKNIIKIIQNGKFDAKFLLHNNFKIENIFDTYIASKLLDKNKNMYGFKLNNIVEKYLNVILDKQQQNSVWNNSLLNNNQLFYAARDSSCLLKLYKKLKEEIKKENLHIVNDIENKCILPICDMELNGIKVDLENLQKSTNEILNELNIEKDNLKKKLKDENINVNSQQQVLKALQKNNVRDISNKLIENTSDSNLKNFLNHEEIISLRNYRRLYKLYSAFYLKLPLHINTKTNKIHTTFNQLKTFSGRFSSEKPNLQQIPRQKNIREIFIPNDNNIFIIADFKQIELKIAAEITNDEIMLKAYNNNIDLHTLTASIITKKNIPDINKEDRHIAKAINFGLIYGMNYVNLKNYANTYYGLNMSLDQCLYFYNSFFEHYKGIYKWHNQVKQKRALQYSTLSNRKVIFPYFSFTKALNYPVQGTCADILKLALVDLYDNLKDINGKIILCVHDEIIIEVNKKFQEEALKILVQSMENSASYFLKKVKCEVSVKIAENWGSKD
# experimentalDetails: Fluorescence-based high-throughput DNA polymerase assay (molecular beacon), primary screen and dose-response;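 for % inhibition ApPOL 90': test concentration in µM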
# Type: biochemical
# conditionLabel: DRC-2; 90'; conc 80
measuredAttribute: % inhibition ApPOL 90' (%)
The figure you give is taken to be in %; do not add the unit.

Query: Param item = Cc1ccc(N2NC(=O)/C(=C\c3ccc(O)c([N+](=O)[O-])c3)C2=O)cc1Cl [KU0058427] ; retrieve measured % inhibition ApPOL 90'.
Response: 78

Query: Param item = N#CC(C#N)=C1SCN(c2cccc(Cl)c2)CS1 [Molecule 29, N#CC(=C1SCN(CS1)c1cccc(c1)Cl)C#N] ; retrieve measured % inhibition ApPOL 90'.
Response: 79

Query: Param item = O=c1nc(/C=C/c2ccc(Br)cc2)oc2ccccc12 [KU0052629] ; retrieve measured % inhibition ApPOL 90'.
Response: 79

---

Can you tell me % inhibition Apo pol 5' 20 for the items I'm about to list?
# assayedSystem: P. falciparum apicoplast DNA polymerase (Pf-apPOL) (Plasmodium falciparum, UniProt Q8ILY1)
# experimentalDetails: Fluorescence-based high-throughput DNA polymerase assay (molecular beacon), primary screen and dose-response
# Format: biochemical
# conditionLabel: DRC-2; read at 5'; concentration 20
The figure you give is taken to be in %; do not add the unit.

Query: Find % inhibition Apo pol 5' 20 (P. falciparum apicoplast DNA polymerase (Pf-apPOL) (Plasmodium falciparum, UniProt Q8ILY1)) for the entry Cc1ccc(N2CCC(NC(=O)Cc3cccs3)C2=O)cc1C (stereo not drawn) [Molecule 57, O=C(NC1CCN(C1=O)c1ccc(c(c1)C)C)Cc1cccs1]
Response: 24

Query: Find % inhibition Apo pol 5' 20 (P. falciparum apicoplast DNA polymerase (Pf-apPOL) (Plasmodium falciparum, UniProt Q8ILY1)) for the entry Cc1ccsc1Cn1c(C)ccc1C [Molecule 70, Cc1ccsc1Cn1c(C)ccc1C]
Response: 32

Query: Find % inhibition Apo pol 5' 20 (P. falciparum apicoplast DNA polymerase (Pf-apPOL) (Plasmodium falciparum, UniProt Q8ILY1)) for the entry Nc1cc(Oc2ccc(O)c(N)c2)ccc1O [KU0034728]
Response: 52
